Experiment: Half life in human liver microsomes
Format: ADME, Microsome
Attribute Measured: half-life

# Substance Smiles, Measured
measured = [
    ("Cc1ccc(-c2nc3ccccc3s2)cc1NC(=O)c1cc([N+](=O)[O-])ccc1Cl", "> 240 min"),
]

Provide half-life value for the following compound: Cc1ccc(-c2nc3ccccc3s2)cc1NC(=O)c1cc([N+](=O)[O-])c(N2CCNCC2)cc1Cl
> 240 min

Provide half-life value for the following compound: O=C(Nc1ccc(F)c(-c2nc3ccccc3s2)c1)c1cc([N+](=O)[O-])c(N2CCNCC2)cc1Cl
> 240 min

Origin of the recorded values: ChEMBL document CHEMBL2321751
